# zone of inhibition at 20 µg/disc annotations
- Test system: Herpes simplex virus, type I (HSV-1)
- TEST_NAME: microbe, parasite or virus in culture
- Format: cell-based
- CONDITION_SUMMARY: Human alphaherpesvirus 1, in Primates; read-out: antiviral activity, HSV-1, zone diameter
Number in mm, nothing else.

Nc1ncc([C@@H]2[C@@H](CNC(=O)c3cc(Br)c[nH]3)[C@H](CNC(=O)c3cc(Br)c[nH]3)[C@H]2c2cnc(N)[nH]2)[nH]1 (relative stereo) [Compound 2a, Sceptrin Acetate]; 11
Nc1ncc([C@@H]2[C@@H](CNC(=O)c3ccc[nH]3)[C@H](CNC(=O)c3cc(Br)c[nH]3)[C@H]2c2cnc(N)[nH]2)[nH]1 (relative stereo) [Compound 1a, Debromosceptrin Acetate]; 11
Nc1ncc(C2c3nc(N)[nH]c3CC(CNC(=O)c3cc(Br)c(Br)[nH]3)C2CNC(=O)c2cc(Br)c(Br)[nH]2)[nH]1 (centres unmarked) [Compound 6a, Dibromoageliferin Acetate]; 9
Nc1ncc(C2c3nc(N)[nH]c3CC(CNC(=O)c3cc(Br)c(Br)[nH]3)C2CNC(=O)c2cc(Br)c[nH]2)[nH]1 (centres unmarked) [Compound 5a, Bromoageliferin Acetate]; 9
NC1=NC(=O)C(C2C(CNC(=O)c3ccc[nH]3)C(CNC(=O)c3cc(Br)c[nH]3)C2c2cnc(N)[nH]2)N1 (centres unmarked) [Compound 7a, Debromooxysceptrin Acetate]; 0
NC1=NC(=O)C(C2C(CNC(=O)c3cc(Br)c[nH]3)C(CNC(=O)c3cc(Br)c[nH]3)C2c2cnc(N)[nH]2)N1 (centres unmarked) [Compound 8a, Oxysceptrin Acetate]; 0
Nc1ncc([C@@H]2[C@@H](CNC(=O)c3cc(Br)c(Br)[nH]3)[C@H](CNC(=O)c3cc(Br)c(Br)[nH]3)[C@H]2c2cnc(N)[nH]2)[nH]1 (relative stereo) [Compound 3a, Dibromosceptrin Acetate]; 9

# evaluate next
Input: # returns recorded zone of inhibition at 20 µg/disc (system: Herpes simplex virus, type I (HSV-1)) for Nc1ncc(C2c3nc(N)[nH]c3CC(CNC(=O)c3cc(Br)c[nH]3)C2CNC(=O)c2cc(Br)c[nH]2)[nH]1 (centres unmarked) [Compound 4a, Ageliferin Acetate]
Output: 10
